Reference source for all entries: PubChem BioAssay AID1963866

test system: PDC KRAS tumor spheroids with HUVEC/MSC, viability; test: Anticancer human tumor 349418-098-R-PDC patient-derived lung adenocarcinoma cell line growth inhibition [KRAS2]; details: curve of first compound; second compound 0.316 µM
Each record here notes measured pIC50.
Field pIC50 (float): negative decimal logarithm of the concentration in molar.

Any idea what pIC50 was measured for COC(=O)c1ccc2c(C(=Nc3ccc(N(C)C(=O)CN4CCN(C)CC4)cc3)c3ccccc3)c(O)[nH]c2c1 + CC1OCC2(CCN(c3cnc(Sc4ccnc(N)c4Cl)c(N)n3)CC2)C1N ?
5.84

Follow-up item: COc1cc2nccc(Oc3ccc(NC(=O)C4(C(=O)Nc5ccc(F)cc5)CC4)cc3)c2cc1OC + CNCc1ccccc1-c1csc(C(C)Nc2nc(C)nc3cc(OC)c(OC)cc23)c1
5.79

Follow-up item: CC1(C)CCC(CN2CCN(c3ccc(C(=O)NS(=O)(=O)c4ccc(NCC5CCOCC5)c([N+](=O)[O-])c4)c(Oc4cnc5[nH]ccc5c4)c3)CC2)=C(c2ccc(Cl)cc2)C1 + COc1cc2nc(C)nc(NC(C)c3cc(N)cc(C(F)(F)F)c3)c2cc1OC1CCOC1
5.73

====

Each record here notes measured viability, T/C.
system: PDC KRAS tumor spheroids with HUVEC/MSC, viability; assay: Anticancer human tumor 349418-098-R-PDC cell line growth inhibition [KRAS2]; details: second compound 3.16 µM; first compound 0.1 µM; stronger effect = lower value;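 also: spheroids exposed to compounds for seven days before readout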

{"compound": "Cn1nccc1Nc1nccc(-c2cc3c(s2)C(C)(C)N(CCN2CCOCC2)C3=O)n1 + CNCc1ccccc1-c1csc(C(C)Nc2nc(C)nc3cc(OC)c(OC)cc23)c1", "value": "0.3%"}
{"compound": "Cn1nccc1Nc1nccc(-c2cc3c(s2)C(C)(C)N(CCN2CCOCC2)C3=O)n1 + C=CC(=O)N1CCN(c2nc(=O)n(-c3c(C)ccnc3C(C)C)c3nc(-c4c(O)cccc4F)c(F)cc23)C(C)C1", "value": "34.9%"}
{"compound": "COc1cc2nccc(Oc3ccc(NC(=O)C4(C(=O)Nc5ccc(F)cc5)CC4)cc3)c2cc1OC + COc1cc2nc(C)nc(NC(C)c3cc(N)cc(C(F)(F)F)c3)c2cc1OC1CCOC1", "value": "85.6%"}

API: value(readout=viability, T/C, system=PDC KRAS tumor spheroids with HUVEC/MSC, viability) for record CCN1CCN(Cc2ccc(Nc3ncc(F)c(-c4cc(F)c5nc(C)n(C(C)C)c5c4)n3)nc2)CC1 + CC1OCC2(CCN(c3cnc(Sc4ccnc(N)c4Cl)c(N)n3)CC2)C1N
18.1%

Follow-up item: CC(C)NCC(C(=O)N1CCN(c2ncnc3c2C(C)CC3O)CC1)c1ccc(Cl)cc1 (stereo unspecified) + CNCc1ccccc1-c1csc(C(C)Nc2nc(C)nc3cc(OC)c(OC)cc23)c1
0.11%

====

Each record here notes measured IC50.
tested on: PDC KRAS tumor spheroids with HUVEC/MSC, viability; assay: Anticancer human tumor 349418-098-R-PDC cell line growth inhibition [KRAS2]; conditions: compound alone; run of 07/19/2021;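 also: spheroids exposed to compounds for seven days before readout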

Any idea what IC50 was measured for C=CC(=O)N1CCN(c2nc(=O)n(-c3c(C)ccnc3C(C)C)c3nc(-c4c(O)cccc4F)c(F)cc23)C(C)C1 (centres undefined) ?
5.54 µM [middle of 5 runs]

Follow-up item: CNCc1ccccc1-c1csc(C(C)Nc2nc(C)nc3cc(OC)c(OC)cc23)c1 (centres undefined)
1.6 µM [middle of 5 runs]

Follow-up item: CC1OCC2(CCN(c3cnc(Sc4ccnc(N)c4Cl)c(N)n3)CC2)C1N (centres undefined)
> 10 µM

Follow-up item: C=CC(=O)N1CCN(c2nc(OCC3CCCN3C)nc3c2CCN(c2cccc4cccc(C)c24)C3)CC1CC#N (centres undefined)
1.47 µM [middle of 5 runs]
